System: pancreatic cancer cells
assayName: Cell viability assay (Table 3)
testConditions: Homo sapiens, Pancreatic cancer cell, read-out: Cell viability (IC50)
measuredQuantity: IC50

>  <molecule>
Cc1noc(C)c1S(=O)(=O)Nc1ccc(Oc2c(Cl)cccc2Cl)nc1 [Compound 448]

>  <systemUnderTest>
pancreatic cancer cells

>  <recordedResult>
80 µM

$$$$
>  <molecule>
COc1cccc(OC)c1C(=O)Nc1ccc(S(=O)(=O)Nc2ccccn2)cc1 [Compound 449]

>  <systemUnderTest>
pancreatic cancer cells

>  <recordedResult>
190 µM

$$$$

----------
systemUnderTest: AKT (phospho-Ser^473-AKT) in HT-29 lung cancer cells (Homo sapiens, UniProt P31749)
Construct: endogenous in cells
assayName: Western blot phospho-Ser473-AKT in HT-29 cells (Table 2)
testConditions: read-out: AKT inhibition (IC50)

>  <inputSmiles>
O=C(O)c1ccccc1C(=O)Nc1ccccc1SCCS(=O)(=O)c1ccc(Cl)cc1

>  <IC50 [µM]>
5

$$$$

----------
systemUnderTest: AKT (phospho-Ser^473-AKT) in BxPC-3 (Homo sapiens)
Sequence (P31749 whole entry): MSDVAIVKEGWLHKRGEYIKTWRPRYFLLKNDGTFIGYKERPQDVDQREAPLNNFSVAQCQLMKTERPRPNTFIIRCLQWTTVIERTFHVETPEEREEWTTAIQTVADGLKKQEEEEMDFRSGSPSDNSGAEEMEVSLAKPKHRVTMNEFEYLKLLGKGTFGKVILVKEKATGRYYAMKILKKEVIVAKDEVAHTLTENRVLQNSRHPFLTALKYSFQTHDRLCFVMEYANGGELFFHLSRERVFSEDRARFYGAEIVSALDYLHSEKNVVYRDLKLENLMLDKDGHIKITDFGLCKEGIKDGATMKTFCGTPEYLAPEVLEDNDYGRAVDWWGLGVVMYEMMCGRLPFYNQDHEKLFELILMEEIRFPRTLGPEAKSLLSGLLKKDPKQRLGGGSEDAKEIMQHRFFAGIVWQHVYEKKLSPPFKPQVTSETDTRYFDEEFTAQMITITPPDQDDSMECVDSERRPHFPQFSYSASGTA
assayName: Western blot phospho-Ser473-AKT in BxPC-3 cells
testConditions: BXPC-3, read-out: % pAKT Inhibition At 10 μM

>  <inputSmiles>
CCCCCCc1ccc(S(=O)(=O)Nc2nncs2)cc1

>  <systemUnderTest>
AKT (phospho-Ser^473-AKT) in BxPC-3 (Homo sapiens)

>  <unitsText>
%

>  <op>
<

>  <inhibition at 10 µM>
10

$$$$
>  <inputSmiles>
CCc1nnc(NS(=O)(=O)c2ccc(NC(C)=O)cc2)s1

>  <systemUnderTest>
AKT (phospho-Ser^473-AKT) in BxPC-3 (Homo sapiens)

>  <unitsText>
%

>  <op>
=

>  <inhibition at 10 µM>
45

$$$$
>  <inputSmiles>
Nc1ccc(S(=O)(=O)Nc2nnc(CC(=O)O)s2)cc1

>  <systemUnderTest>
AKT (phospho-Ser^473-AKT) in BxPC-3 (Homo sapiens)

>  <unitsText>
%

>  <op>
=

>  <inhibition at 10 µM>
23

$$$$
>  <inputSmiles>
CCCCCCCCCCCCc1ccc(S(=O)(=O)Nc2nnc(C(C)(C)C)s2)cc1

>  <systemUnderTest>
AKT (phospho-Ser^473-AKT) in BxPC-3 (Homo sapiens)

>  <unitsText>
%

>  <op>
=

>  <inhibition at 10 µM>
36

$$$$
>  <inputSmiles>
CC(C)(C)c1nnc(NS(=O)(=O)c2ccc(N)cc2)s1

>  <systemUnderTest>
AKT (phospho-Ser^473-AKT) in BxPC-3 (Homo sapiens)

>  <unitsText>
%

>  <op>
=

>  <inhibition at 10 µM>
13

$$$$

----------
assayName: Solubility (Table 11)
Type: physicochemical
Catalogue of solubility values

>  <compound>
CC1=NN(C(=O)c2ccc(C(C)(C)C)cc2)C(=O)C1/N=N/c1ccc(S(=O)(=O)Nc2ncccn2)cc1 (centres unmarked) [Compound 332]

>  <solubility / µM>
28.6

$$$$
>  <compound>
CC1=NN(C(=O)c2ccccc2)C(=O)C1/N=N/c1ccc(S(=O)(=O)Nc2ncccn2)cc1 (centres unmarked) [Compound 331]

>  <solubility / µM>
28.3

$$$$
>  <compound>
CC1=NN(C(=O)c2ccc(N)cc2)C(=O)C1/N=N/c1ccc(S(=O)(=O)Nc2ncccn2)cc1 (centres unmarked) [Compound 333]

>  <solubility / µM>
12.9

$$$$
>  <compound>
CC1=NN(C(=O)c2ccc(Cl)cc2)C(=O)C1/N=N/c1ccc(S(=O)(=O)Nc2ncccn2)cc1 (centres unmarked) [Compound 316]

>  <solubility / µM>
17.9

$$$$
>  <compound>
CC1=NN(C(=O)c2ccc(O)cc2)C(=O)C1/N=N/c1ccc(S(=O)(=O)Nc2ncccn2)cc1 (centres unmarked) [Compound 360]

>  <solubility / µM>
13.1

$$$$
